ENDPOINT_NAME: melting point

melting point lookup needed for `O=C1C(O)=C(Cl)C(=O)C(O)=C1Cl` , thanks.
284 °C

Field request: melting point | item: `O=C1C=CC(=O)C(c2ccccc2)=C1`
114 °C

What value of melting point has been reported for the following compound? `Cc1ccncc1C`
-11 °C

Returns the measured melting point for the input compound. Input: `CCCCCCCCCCCCCCN`
83.1 °C

Which value of melting point has been reported for `C(=Nc1ccccc1)c1ccccc1` in the records?
54 °C

Query (compound): `O=[N+]([O-])c1ccc(C=NO)o1` ; field requested: melting point
163 °C

Field request: melting point | item: `C=C(C)C`
-140 °C

Consider the compound CN(C)CC(O)c1ccc(O)c(O)c1 (centres undefined) and give its measured melting point.
149 °C

melting point for `CC[C@H](Br)C(=O)O` ?
-4 °C
